src = the RNAGym collection of RNA variant scans (doi:10.1073/pnas.2313332121)

B1: TPR t1 (parent)
chain: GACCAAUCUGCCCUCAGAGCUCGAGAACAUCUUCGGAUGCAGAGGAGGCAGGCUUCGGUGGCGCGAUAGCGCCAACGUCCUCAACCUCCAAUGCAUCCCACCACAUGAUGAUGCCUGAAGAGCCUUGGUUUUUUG

# Variants of: B1
# measurement_notes: polymerase ribozyme fitness, log enrichment relative to wild type (log ratio); higher = more active; in vitro selection for triplet polymerase activity
Give measured polymerase ribozyme fitness (log ratio) for each item. Keep answers brief.

[in] Answer with the recorded polymerase ribozyme fitness (log ratio) for the variant listed here: GACCAAUCUGCCCUCAGAGCUCGAGAACAUCUUCGGAUGCAGAGGAGGCAGGCUUCGGUGGCGCGAUAGCGCCAACGUCCUCAACGUACAAUGCAUCCCACCACAUGAUGAUGCCUGAAGAGCCUUGGUUUUUUG
[out] -1.96

[in] Identify measured polymerase ribozyme fitness (log ratio) associated with GACCAAUCUGCCCUCAGAGCUCGAGAACACCUUCGGAUGCAGAGGAGUCAGGCUUCGGUGGCGCGAUAGCGCAAACGUCCUAAACCUCCAAUGCAUCCCACCACAUGAUGAUGCCUGAAGAGCCUUGGUUUUUUG
[out] -3.73

[in] Please give measured polymerase ribozyme fitness (log ratio) of the following entry: GACCAAUCUGCCCUCAGAGCUCGAGAACAUCUUCGGAUGCAGAGGAGGCAGGAUUCGGUGGCGCGAUAGCGCCAACGUCCUCAACCUCCAAUGCAUCCCACCACAUGAUGAUGCCUGAAGAGCCUUGGUUUUGUG
[out] -0.187

[in] Consider the variant GACCAAUCUACCCUCAGAGCUCGAGAACAUCUUCGGAUGCAAAAGAGGCAGGCUUCGGUGGCGCGAUAGCGUCAACGUCCUCAACCUCCAAUGCAUCCCACCACAUGAUGAUGCCUGAAGAGCCUUGGUUUUUUG and give its recorded polymerase ribozyme fitness (log ratio).
[out] -1.94

[in] Specify polymerase ribozyme fitness (log ratio) for GACCAAUUUGCCCUCAGAGCUCGAGAACAUCUUCGGAUGCAGAGGAGGCAGUCUUCGGUGGCGCGAUAGCGCCAACGUCCUCAACAUCCAAUGCAUCCCACCACAUGAUGAUGCCUGAAGAGCCUUGGUUUUUUG and stop.
[out] -1.28

[in] State its polymerase ribozyme fitness (log ratio) for this variant: GACCAAUCUGCCCUCAGAGCUCGAGAACAUCUUCGGAUGCAGAGGAGGCACUCUUCGGUGGCGCGAUAGCGCCAACGUCCUCAACCUCCAAUGCAUCCCACAACAUGAUGAUGCCUGAAGAGCAUUGGUUUUUUG
[out] -4.54

[in] Give polymerase ribozyme fitness (log ratio) for the following variant: GACUAAUCUGCCCUAAGAGCUCGAGAACAUCUUCGGAUGCAGAGGAGGCAGGCUUCGGUGGCGCGAUAGCGCCAACGUCCUGAACCUCCAAUGCAUCCCACCACAUGAUGAUGCCUGAAGAGCCUUGGUUUUUUG
[out] -3.56

[in] Fill in polymerase ribozyme fitness (log ratio) for record GACCAAUCUGCCGUCAGAGCUCGAGAACAUCUUCGGAUGCAGAGGAGGCAGGCUUCGGUGGCGCGAUAGCGCCAACGUCCUCAACCUACAAUGCAUCCCACCACAUGAUGAUGCCUGAAGAGCCUUGGUGUUUUG
[out] -3.24

[in] State its polymerase ribozyme fitness (log ratio): GACCAAUCUGACCUCAGAGCUCGAGAACAUCUUCGGAUGCAGAGGAGGCAGGCUUCGGUGGCGCGAUAGCGCCAACGUCCUCAACCUCCAAUGCAUCCCACCACAUGAUGCUGCCUGAAGAGCCUUGGUUAUUUG
[out] -2.03

[in] Consider the variant GUCCAAUCUGCCCUCAGAGCUCGAGAACAUCUUCGGAUGCAGAGGAGGCAGGCUUCUGUGGCGCGAUAGCGCCAACGUCCUCAACCUCCAAUGCAUCCCACCACAUGAUGAUGCCUUAAGAGCCUUGGUUUUUUG and give its recorded polymerase ribozyme fitness (log ratio).
[out] -5.98

[in] Supply polymerase ribozyme fitness (log ratio) value. Item: GACCAAUCUGCCCUCAGAGCUCGAGAACAUCUUCGAAUGCAGAUGAGGCAGGCUUCGGUGGCGCGAUAGUGCCAACGUCCUCAACCUCCAAUGCAUCCCACCACAUGAUGCUGCCUGAAGAGCCUUGGUUUUUUG
[out] -2.48

[in] Annotate the variant GACCAAUCUUCCCUCAGAGCUCGAGAACAUCUUCAGAUGCAGAGGAGGCAGGCUUCGGUGGCGCGAUAGCGCCAACGUCCUCAACCUCCAAUGCAUCCCACCACAUGAUGAUGCCUCAAGAGCCUUGGUUUUUUG with its measured polymerase ribozyme fitness (log ratio).
[out] -6.56

[in] Provide only the value of recorded polymerase ribozyme fitness (log ratio) for GACCAAUCUGCCCUCAGAGCUCGAGAACAUCUUCGGAUGCAGAGGAGGCAUGCUUCGGUGGCGCGAUAGCGCCAAAGUCCUCAACCUCCAAUGCAUCCCACCACAAGAUGAUGCCUGAAGAGCCUUGGUUUUUUG
[out] -2

[in] Look up polymerase ribozyme fitness (log ratio) of GACCAAUCCGCCCUCAGAGCUCGAGAACAUCUUCGGAUGCAGAGGAGGCAGGCUUCGGUGGCGCGAUAGCGCCAACGUCCUAAACCUCCAAUGCAUCCCACCACAUGAGGAUGCCUGAAGAGCUUUGGUUCUUUG and report it.
[out] -3.57

[in] Report measured polymerase ribozyme fitness (log ratio); entry is GACCAAUCUGCCCUCAGAGCUCGAGAACAUCUUCGGAUGCAGAGGAGGCAGGCUUCGGUGGCGCGAUAGCGUCAACGUCCUCAACCUCCAAUGCAACCCACCACAUGAUGAUGCCUGAAGAGCCUUGGUUUUUUG
[out] -1.65

[in] Quickly give me recorded polymerase ribozyme fitness (log ratio) for GACCAAUCUGCCCUCAGAGCUCGAGAACAUCUUCGGAUUCAGAGGAGGCAGGCUUCGGUGGCGCGAUAGCGCCAACGUCCUCAACCUCCAAUGCAUCCCACCACAUGAUGAUGCCUGAAGAGUCUUGGUUUUUUG
[out] 0.845

[in] Note down polymerase ribozyme fitness (log ratio) recorded for GACCAAUCUGCCCUCAGAGCUCGAGAACAUCUUCGGAUGCAGGGGAGGCAGGCUUCGGUGGCGCGAUAGCGCCAACGUCCUCAACCUCCAAUGCAUCCCAUCACAUGAUGAUGCCUGAAGAGCCUUGGUUUUUUG
[out] -1.47

[in] Hello, please tell me recorded polymerase ribozyme fitness (log ratio) for this one: GACCAAUCCGCUCUCGGAGCUCGAGAACAUCUUCGGAUGCAGAGGAGGGAGGCUUCGGUGGCGCGAUAGCGCCAACGUCCUCAACCUCCAAUGCAUCCCACCACAUGAUGAUGCCUGAAGAGCCUUGGUUUUUUG
[out] 0.31

[in] Provide polymerase ribozyme fitness (log ratio) value for the following variant: GACCAAUCUGCCAUCAGAGCUCGAGAACAUCUUCGGAUGAAGAGGAGGCAGGCUUCGGUGGCGCGAUAGCGCCAACGUCCUCAACCUCCAAUGCAUCCCACCACAUGAUGAUGCCUGAAGAGCCUUGGUUUUUUG
[out] -2.4

[in] Indicate the recorded polymerase ribozyme fitness (log ratio) value for this variant: GACCAAUCUGCUCUCAGAGCUGGAGAACAUCUUCGGAAGCAGAGGAGGCAGGCUUCGGUGGCGCGAUAGCGCCAACGUUCUCAACCUCCAAUGCAUCCCACCACAUGAUGAUGCCUGAAGAACCUUGGUUUUUUG
[out] -3.65

[in] Specify reported polymerase ribozyme fitness (log ratio) for the variant shown: GACCAAUCUGCCCUCAGAGCUCGAGAACAUCUUCGGAUGCAGAGUAGGCAGGCUUCGGUGACGCGAUAGCGCCAACGUCCUCAACCUCCAAUGCAUCCCACCACAUGAUGAUGCCUGAAGAGCCUUGGUUUUUUG
[out] -2.11

[in] Determine from records and report polymerase ribozyme fitness (log ratio) for GACCAAUCUGCCCUCAGAGCUCGAGAACAUCUUCGGAUGCAGAGGAGGCAGGCUUCGGUGGCGCGAUAGCGCCAACGUCCUCAACCUCCAAUGCAUCCCACCACAUGAUGACGCCUGAAGAGCCUUGGUUUUUUG
[out] 1.39

[in] Return the recorded polymerase ribozyme fitness (log ratio) value; entry: GACCAAUCUGCCCUCAGAGCUCGAGAACAUCUUCGGAUGCAGAGGAGGCAGGCUUCGGUGGCGCGAUAGCGCCAGCGUCCUCCACCUCCAAUCCAUCCCACCACAUGAUGAUGCCUGAAGAGCCUUGGUUUUUUG
[out] -1.73

[in] Supply recorded polymerase ribozyme fitness (log ratio) for GACCAAUCUGCACUAAGAGCUCGAGAACAUCUUCGGAUGCAGAGGAGGCAGGCUUCGGUGGCGCGAUAGCGACAACGUCCUCAACCUCCAAUGCAUCCCACCACAUGAUUAUGCCUGAAGAGCCUUGGUUUUUUG here.
[out] -4.88

[in] Quick one: give measured polymerase ribozyme fitness (log ratio) for GACCAAUCUGCCCUCAGAGCUCGAGAACAUCUUCGGAUGCAGAGGAGGUAGGCUUCGGUGGCGCGAUAGCGCUAACGUCCUCAACCUCCAAUGCAUCCCACCACAUGAUGAUGCCUGAAGAGCCUUGGUUUUUUG
[out] -0.609

[in] Give the reported polymerase ribozyme fitness (log ratio) for this variant. GACUAAUCUGCCCUCAGAGCUCGAGAACAUCUUCGGAUGCAGAGGAGGCAGGCUUCGGUGGCGCGAUAGCGCCAACGUCCACAACCUCCAAUGCAUCCCACCACAUGAUGAUGCCUGAAGAGCCUUGGUUUUUUG
[out] -1.77

[in] Please give the documented polymerase ribozyme fitness (log ratio) of GACCAAUCUGCCCUCAGAGCUCGAGAACAUCUUCGGAUGCAGAGGAGGCAGUCUUCGGUGGCGCGAUAGCGCCAACGUCCUCAACCUCCAAUGCAUCCCACCACAUGAUGAUGCCUGAAGAGCCUUGGUUUUGUG
[out] -1.42

[in] Provide only the value of recorded polymerase ribozyme fitness (log ratio) for GACCAAUCUGCCCUCAGAGCUCGAGAACAUCUUCGGAUGCAGAGGAGCCAGACUUCGGUGGCGCGAUAGCGCCAACGUCCUCAACCUCCAAUGCAUCCCACAACAUGAUGCUGCCUGAUGAGCCUUGGUUUUUUG
[out] -4.33

[in] Specify measured polymerase ribozyme fitness (log ratio) for GACCAAUCUGCCCUGAGAGCUCGAGAACAUCUUCGGAUGCAGAGGAGGCAGUCUUCGGUGGCGCGAUAGCGCCAACGUCCUCAACCGCCAAUGCAUCCCACCACAUGAUGAUGCCUGAAGAGCCUUGGUUUUUUG .
[out] -3.21

[in] Provide one value: measured polymerase ribozyme fitness (log ratio) of GACCAAUCUGCCCUCAGAGCUCGAGAACAUCUUCGGAUGCAGAGGAGGCAGGCUUCGGUGGCGGGAUAGAGCCAACGUCCUCAACCUCCAAUACAUCCCAACACAUGAUGAUGCCUGAAAAGCCUUAGUUGUUUG
[out] -6.32

[in] Quick one: give measured polymerase ribozyme fitness (log ratio) for GACCAAUCUGCCCUCAGAGCGCGAGAACAUCUUCGGAUGCAGAGGAGCCAGGCUUCGGUGGCGCGAUAGCGCCAACGUCCUCAACCUCCAAUGCAUCCCACCACAUGAUGAUGCCUGAAGAGCCUUGGUUUUUUG
[out] -1.56

[in] Annotate the variant GACCAAUCUGCCCACAGAGCUCGAGAACAUCUUCGGAUGCAGGGGAGGCAGGCUUCGAUGGCGCGAUAGCGCCAACGUCCUCAACUUCCAAUGCAUCCCACCACAUGAUGAUGCCUGAAGAGCCUUGGUUUUUUG with its measured polymerase ribozyme fitness (log ratio).
[out] -4.43

[in] Tell me measured polymerase ribozyme fitness (log ratio) for GACCAAUCUGCCCUCAGAGCUCGAGAACAUCUUCGGAUGCAGAGGAGGCAGGCUUCGGUGGCGCGAUAGCUUCAACGUCCUCAACCUCCAAUGCAUCCCACCACAUGAUGAUGCCUGGAGAGCCUUGGUUUUUUG please.
[out] -0.476

[in] Return value of polymerase ribozyme fitness (log ratio) for input GAACAAUCUACCAUCAGAGCUCGAGAACAUCUUCGUAUGCAGAGGAGGCAGGCUUCGGUGGCGCGAUAGAGCCAACGUCCUCAACCUCCAAUGCAUCCCACCACAUGAUGAUGCCUGAAGAGCCUUGGCUUUUUG , no commentary.
[out] -5.83

[in] Note polymerase ribozyme fitness (log ratio) for the variant shown: GACCAAUCUGCCCUCAGAGCUCGAGAACAUCUUCGGAUGCAGAGGAGGCAGGCUUAUGUGGCGCGAUAGCGCCAACGCCCUCAACCUCCAAUGCAUCCCACCACAUGAUGAUCCCUGAAGAGCCUUGGUUUUUUG
[out] -3.22

[in] Using known records, supply polymerase ribozyme fitness (log ratio) for GACCAAUCUGCCCUGAGAGCUCGAGAACAUCUUCGGAUGCAGAGGAGGCAGGCUUCGGUGGCGCGAUAGUGCCAACGUCCUCAACCUCCAAUGCAUCCCACCACAUGAUGAUGCCUGAAGAGCCUUGGUUUUUUG
[out] -3.1

[in] Give a short answer stating reported polymerase ribozyme fitness (log ratio) for GUCCAAUCUGCCCUCAGAGCUCGAGAACAUCUUAGGAUGCAGAGGAGGCAGGCUUCGGUAGCGCGAUAGCGCCAACGUCCUCAACCUCCAAUGCAUCCCACCACAUGAUGAUGCCUGAAUAGCCAUGGUUUAUUG .
[out] -3.85

[in] For the variant GACCAAUCUGCCCUCAGAGAUCGAGAACAUCUUCGGAUGCAGAGGAGGCAGGCUUCGGCGGCGCGAUAGCGCCAACGUCCUCAACCUCCAAUGCAUCCCACCACAUGAUGAUGCCUGAAGAGCCUUGGUUUUUUG , give its measured polymerase ribozyme fitness (log ratio) value.
[out] -2.71

[in] Supply reported polymerase ribozyme fitness (log ratio) belonging to this variant: GACCAAUCUGCCCUCAGAGCUCGAGAACAUCUUCGGAUGCAGAGGGGGCGGGCUUCGGUGGCGCGAUAGCGCCAACGUCCUCAACCUCCAAUGCAUCCCACCACAUGAUGAUGCCUGAAGAGCCUUGGUUUUUUG
[out] 0.425

[in] Please look at this variant and report its polymerase ribozyme fitness (log ratio): GACCAAUCUGCCCUCAGAGCUCGAGAACAUCUUCGAAUGCAGAGGAGGCAGGCUUCGGAGGCGCGAUAGCGCCAACGUCCUCAACCUCCAAUGCAUCCCACCACAUGAUGAUGCCUGAAGAGCCUUGGUUUUUUG
[out] -0.196
